# method: Assessment of the BBB passage: brain and plasma sampling
# Format: in vivo, Sprague Dawley rats
# measurement.conditions: male, Crl:CD(SD)Br Sprague Dawley, brain/plasma, iv; rat, i.v. 10 mg/kg, 0.5 h; read-out: Brain/Plasma ratio
reported.metric: Kp at 0.5 h

# molecule, experimental.value
rows = [
    ("CN1CCN(Cc2ccc(COc3nccc(C(C#N)c4nc5ccccc5s4)n3)cc2)CC1 (stereo not shown) [Example 1]", 0.3),
]

----------
# method: Assessment of the BBB passage: brain and plasma sampling
# Assay type: in vivo, Sprague Dawley rats
# measurement.conditions: male, Crl:CD(SD)Br Sprague Dawley, plasma, iv; rat, i.v. 10 mg/kg, 1 h, pooled n = 2; read-out: Plasma concentration
reported.metric: concentration at 1 h

# compound, experimental.value
records = [
    ("CN1CCN(Cc2ccc(COc3nccc(C(C#N)c4nc5ccccc5s4)n3)cc2)CC1 (stereo not shown) [Example 1]", "1980 ng/mL"),
]

----------
# method: Assessment of the BBB passage: brain and plasma sampling
# Format: in vivo, Sprague Dawley rats
# measurement.conditions: male, Crl:CD(SD)Br Sprague Dawley, brain, iv; rat, i.v. 10 mg/kg, 0.25 h, pooled n = 2; read-out: Brain concentration
# From the text: c) Assessment of the BBB Passage: Brain and Plasma Sampling The compounds of the present invention are useful in the treatment and/or prophylaxis of cerebral ischemic disorders or CNS disorders. […] The BBB passing capacity of the compounds according to formulae I or II may be assessed using the below protocols. The objective of this assay is to quantify the amount of the test compounds according to formulae I or II in the brain of rats following i.v. administration. […]

# molecule, concentration at 0.25 h, ng/g
records = [
    ("CN1CCN(Cc2ccc(COc3nccc(C(C#N)c4nc5ccccc5s4)n3)cc2)CC1 (stereo not shown)", 919),
]

----------
# method: Assessment of the BBB passage: brain and plasma sampling
# Format: in vivo, Sprague Dawley rats
# measurement.conditions: male, Crl:CD(SD)Br Sprague Dawley, brain/plasma, iv; rat, i.v. 10 mg/kg, 0.25 h; read-out: Brain/Plasma ratio

# compound, Kp at 0.25 h
records = [
    ("CN1CCN(Cc2ccc(COc3nccc(C(C#N)c4nc5ccccc5s4)n3)cc2)CC1 (stereo not shown)", 0.32),
]

----------
# method: Assessment of the BBB passage: brain and plasma sampling
# Type: in vivo, Sprague Dawley rats
# measurement.conditions: male, Crl:CD(SD)Br Sprague Dawley, brain, iv; rat, i.v. 10 mg/kg, 1 h, pooled n = 2; read-out: Brain concentration

# compound, concentration at 1 h, ng/g
data = [
    ("CN1CCN(Cc2ccc(COc3nccc(C(C#N)c4nc5ccccc5s4)n3)cc2)CC1 (stereo not shown)", 679),
]

----------
# method: Assessment of the BBB passage: brain and plasma sampling
# Format: in vivo, Sprague Dawley rats
# measurement.conditions: male, Crl:CD(SD)Br Sprague Dawley, plasma, iv; rat, i.v. 10 mg/kg, 0.25 h, pooled n = 2; read-out: Plasma concentration

# compound, unit.symbol, concentration at 0.25 h
measured = [
    ("CN1CCN(Cc2ccc(COc3nccc(C(C#N)c4nc5ccccc5s4)n3)cc2)CC1 (stereo not shown)", "ng/mL", 2840),
]

----------
# method: Assessment of the BBB passage: brain and plasma sampling
# Format: in vivo, Sprague Dawley rats
# measurement.conditions: male, Crl:CD(SD)Br Sprague Dawley, plasma, iv; rat, i.v. 10 mg/kg, 0.5 h, pooled n = 2; read-out: Plasma concentration
reported.metric: concentration at 0.5 h (ng/mL)

# compound, reported.metric, experimental.value
measured = [
    ("CN1CCN(Cc2ccc(COc3nccc(C(C#N)c4nc5ccccc5s4)n3)cc2)CC1 (stereo not shown)", "concentration at 0.5 h", 2160),
]
